B1: LINE1-full (parent)
chain: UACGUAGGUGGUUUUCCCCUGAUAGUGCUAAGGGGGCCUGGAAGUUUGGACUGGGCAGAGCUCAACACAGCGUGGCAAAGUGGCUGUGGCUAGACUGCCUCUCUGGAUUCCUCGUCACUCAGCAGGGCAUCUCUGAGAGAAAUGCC

variants of: B1; experiment: self-cleavage, relative activity (ratio to wild type); higher = more cleavage; in vitro, sequencing; the parent is a self-cleaving ribozyme
# self-cleavage >= 0.5 gives Y, anything below gives N

Solved entries:
| Mutant id | Cat |
| --- | --- |
| A31U U100C | Y |
| G83C U132A | Y |
| A65U U85G | N |
| A57U G144U | N |
| G10A A65G | N |
| A77G G97U | N |

Could you now look at the following variant, please?
Prompt: Is the recorded value of self-cleavage equal to or greater than 0.5 for this variant? U12C U130C
Completion: Y
